Target: T1, CD27 expressed on the cell surface of HT1080_CD27 cells (human, UniProt P26842 20-260)
T1 construct: whole, on cells; species not restated for the HT1080 transfectant
T1 sequence (looked up): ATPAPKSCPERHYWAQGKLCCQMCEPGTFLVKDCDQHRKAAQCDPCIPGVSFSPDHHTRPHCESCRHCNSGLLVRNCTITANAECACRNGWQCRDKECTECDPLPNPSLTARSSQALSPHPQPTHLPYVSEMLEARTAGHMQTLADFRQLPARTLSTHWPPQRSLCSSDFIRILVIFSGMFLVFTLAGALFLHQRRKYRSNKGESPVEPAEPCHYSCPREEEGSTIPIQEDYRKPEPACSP
Assay: HT1080_CD27 cells, imaging; further: test concentration or dose not given here
property_label: Cellular binding assay [RFU] (RFU)
I only need the number, in RFU, no unit after it.

Completed entries (count: 2):
P018.S.05.A.F05 (as anti-CD27 antibody) (antibody, V domains shown, V regions on human Ig constant parts; also called AB27_92) VH: QSVEESGGRLVTPGTPLTLTCTVSGFSLSNYYMTWVRQAPGKGLEYIGIIGSGVSTYYANWAKGRFTISKASSTTVDLKMTSPTTEDTATYFCARDMYVGNWGDWGLWGQGTLVTVSS VL: AYDMTQTPASVEVAVGGTVTIKCQASQSISNNLNWYQQKPGQPPKLLIYSVSTLASGVPSRFKGSGSGTDYTLTISGVESVDAATYYCQQDYRIGDLDSAFGGGTEVVVK has a reported Cellular binding assay [RFU] of 11

P018.S.05.A.D03 (antibody, V domains shown, V regions on human Ig constant parts; also called AB27_86) VH: QEQLEESGGDLVQPEGSLTLTCTVSGFSFNSNYWICWVRQAPGKGLEWIACIMTGDGSTYYATWAKGRFTISKTSSTTVTLQMTSLTAADTATYFCARGYDGIHGGDNYGHVFNLWGPGTLVTVSS VL: AFELTQTPFSVSAVVGGTVTINCQASENIYSLLAWYQQKPGQPPKLLIYRASTLASGVPSRFKGSGSGTQFTLIISDLESGDAATYYCQSYYINSSNSFGGGTEVVVK has a reported Cellular binding assay [RFU] of 321

Others:
P018.S.03.A.D04 (antibody, V domains shown, V regions on human Ig constant parts; also called AB27_49) VH: QEHLEESGGGLVQPGGTLTLTCKASGIDFSSSYYMCWVRQAPGKGLERLACTYNRDGSTYYASWAKGRFTISKTSSTTVTLQMTSLTVADTATYFCARDDGYPGSGYVLNLWGPGTLVTVSS VL: DVVMTQTPASVEAAVGGTVTIRCQASQSVSNYFSWYQQKPGQPPKLLIYGASNLESGVPSRFKGSGSGTEFTLTISGVQSDDAATYYCQGGYYSSNTDNNSFGGGTEVVVK has a reported Cellular binding assay [RFU] of 270
